From: patent US20220251219A1

As shown below, each of these binders has a reported MFI value.
SYSTEM_TESTED: T1, recombinant mouse Sortilin (mouse, UniProt Q6PHU5 74-825)
T1 construct: also called mSort
EXPERIMENTAL_PROTOCOL: flow cytometry, 293 cells expressing recombinant mouse Sortilin, 10 ug/ml antibody

[
  {
    "BINDER": "anti-Sortilin antibody S-61 (antibody, V domains shown, IgG) VH: QVQLQESGPGLVKPSETLSLTCAVSGYSISSGYYWGWIRQPPGKGLEWIGSIYHSGSTYYNPSLKSRVTISVDTSKNQFSLKLSSVTAADTAVYYCARGSPRFYYGSGSYLDLFDIWGQGTMVTVSS VL: EIVMTQSPATLSVSPGERATLSCRASQSVSSNLAWYQQKPGQAPRLLIYGASTRATGIPARFSGSGSGTEFTLTISSLQSEDFAVYYCQEYLNYPITFGGGTKVEIK",
    "MFI": "21800 MFI"
  },
  {
    "BINDER": "anti-Sortilin antibody S-48 (antibody, V domains shown, IgG) VH: QVQLVESGGGVVQPGRSLRLSCAASGFTFSSYGMHWVRQAPGKGLEWVAVISYDGSNKYYADSVKGRFTISRDNSKNTLYLQMNSLRAEDTAVYYCARESGDRATLVYYYYYGMDVWGQGTTVTVSS VL: EIVMTQSPATLSVSPGERATLSCRASQSVSSNLAWYQQKPGQAPRLLIYSASTRATGIPARFSGSGSGTEFTLTISSLQSEDFAVYYCQQYNSWPITFGGGTKVEIK",
    "MFI": "11900 MFI"
  },
  {
    "BINDER": "anti-Sortilin antibody S-14 (antibody, V domains shown, IgG) VH: QVQLVQSGAEVKKPGASVKVSCKASGYTFTSYYMSWVRQAPGQGLEWMGIINPSGGSTSYAQKFQGRVTMTRDTSTSTVYMELSSLRSEDTAVYYCARDPSGIAAAGPASRYYYGMDVWGQGTTVTVSS VL: DIQMTQSPSSLSASVGDRVTITCRASQSISSYLNWYQQKPGKAPKLLIYGASSLQSGVPSRFSGSGSGTDFTLTISSLQPEDFATYYCQQHYVGPFTFGGGTKVEIK",
    "MFI": "16500 MFI"
  }
]
